Values compiled from paper PMC9352680.

- tested system: T1, PUF4 RNA-binding domain (Saccharomyces cerevisiae, UniProt P25339 537-888)
- T1 sequence: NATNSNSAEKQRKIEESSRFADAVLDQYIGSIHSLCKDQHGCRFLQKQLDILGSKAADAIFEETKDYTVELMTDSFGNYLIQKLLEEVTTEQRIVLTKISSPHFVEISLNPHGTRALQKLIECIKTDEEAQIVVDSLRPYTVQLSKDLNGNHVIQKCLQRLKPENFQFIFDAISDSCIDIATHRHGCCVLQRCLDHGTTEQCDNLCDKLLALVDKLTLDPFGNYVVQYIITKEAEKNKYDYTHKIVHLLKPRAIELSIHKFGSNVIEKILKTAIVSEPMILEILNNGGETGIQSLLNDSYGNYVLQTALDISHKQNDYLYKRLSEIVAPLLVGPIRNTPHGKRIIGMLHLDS
- test protocol: Mg; RNA-MaP; 20 mM Na-HEPES pH 7.4, 30 mM KOAc, 0.75 mM MgCl2, 0.1% Tween-20, 5% glycerol, 0.1 mg/mL BSA, 2 mM DTT; 25 C; 0.0125-409.6 nM protein
- test context: tags: N-His6-TEV cleaved; C-SNAP kept, Cy3B-labelled; label: tethered on chip by stalled RNA polymerase
# key: entry, value: Kd
Number in nM, nothing else.

IN: Any idea what its Kd is? The binder is UCUCUUUGUAAAAUCUCUCUU (ssRNA) [Ic_S1_P4E.1_K4.1_C4.1_H4.1_A4.1_[T5A]_[T7A]_F4.1_[A9C]_T4.1]
OUT: 54.4

IN: And Id_i_S2_P3E.5_K3.1_C3.3_[T-3A]_[C-2G]_[T-1C]_H3.1_A3.1_F3.1_T3.2 (ssRNA) RNA: UUUGAUUAAUAUGAUAUCGUUCUUUCUAGCUGUAUAUAUAUUCUUUCUCGAUAUCAUAUUAAUCUUU ?
OUT: 2.13

IN: Request: UCUCUUUGUACUAUACUCUCUU (ssRNA) [Ic_S1_P5E.1_K5.1_C5.1_H5.1_A5.1_[T5C]_F5.1_[T9A]_[A10C]_T5.1]
OUT: 2.18
